Test system: Mus musculus
Assay method text: Toxicity in PS mouse allografted with mouse P388 cells assessed as change in body weight at 12.5 ug/kg relative to control
Type: organism-based
Measurement context: in vivo, 0.0125 mg/kg
Measured quantity: Activity

| Compound | Measured |
| --- | --- |
| COc1cc2cc(c1Cl)N(C)C(=O)C[C@H](OC(C)=O)[C@]1(C)O[C@H]1[C@H](C)[C@@H]1C[C@@](O)(NC(=O)O1)[C@H](OC)/C=C/C=C(\C)C2 | 0.3 g |
| COc1cc2cc(c1Cl)N(C)C(=O)C[C@H](OC(=O)[C@H](C)N(C)C(C)=O)[C@]1(C)O[C@H]1[C@H](C)[C@@H]1C[C@@](O)(NC(=O)O1)[C@H](OC)/C=C/C=C(\C)C2 | 1.6 g |
| COc1cc2cc(c1Cl)N(C)C(=O)CC(O)C1(C)OC1C(C)C1CC(O)(NC(=O)O1)C(OC)/C=C/C=C(\C)C2 (stereo not drawn) | 1.5 g |
